Here, each record is paired with measured log10 MIC data.
Tested on: Staphylococcus aureus
method_summary: Antibacterial activity against vancomycin resistant Staphylococcus aureus VRS12 assessed as reduction in bacterial cell growth incubated for 18 to 20 hrs by broth microdilution method
Assay type: functional
A value of 2 here means MIC of 100 in µg/mL, since values are log10.

smiles_str | log10 MIC
C/C(=N\NC(=N)N)c1sc(-c2ccc(C#Cc3cccc(O)c3)cc2)nc1C | 0.60

Returns the measured log10 MIC for the input compound. Input: C/C(=N\NC(=N)N)c1sc(-c2ccc(C#Cc3ccc(C)s3)cc2)nc1C 0.90

I am curious: what log10 MIC value has been reported for C/C(=N\NC(=N)N)c1sc(-c2ccc(C#CC3(O)CCCCC3)cc2)nc1C ? 0.60

Dear colleague, I am looking for the recorded log10 MIC of the following compound: C/C(=N\NC(=N)N)c1sc(-c2ccc(C#Cc3cccs3)cc2)nc1C 0.90

If you can, please state the reported log10 MIC value of C/C(=N\NC(=N)N)c1sc(-c2ccc(C#CC(C)(C)O)cc2)nc1C . 0.60

Hey, just so you know, these numbers are from ChEMBL document CHEMBL4393697.
